The origin of these recorded values is ChEMBL document CHEMBL2029249.

- experiment: Volume of distribution at steady state in Sprague-Dawley rat at 2 umol/kg, iv
- Type: ADME, organism-based
- measurementParameters: in vivo, read-out: Vdss
quantityKind: Vd (L/kg)
Number in L/kg, nothing else.

Query string: Quick one: Vd of CNC(=O)CCCN(C)C(=O)c1ccc2c(c1)c1c(n2C)CC[C@@H](C2CCOCC2)C1 ?
Result string: 0.3

###

Items are presented alongside their recorded pIC50.
- targetOfAssay: Voltage-gated inwardly rectifying potassium channel KCNH2 (Homo sapiens)
- Sequence (Q12809 whole entry): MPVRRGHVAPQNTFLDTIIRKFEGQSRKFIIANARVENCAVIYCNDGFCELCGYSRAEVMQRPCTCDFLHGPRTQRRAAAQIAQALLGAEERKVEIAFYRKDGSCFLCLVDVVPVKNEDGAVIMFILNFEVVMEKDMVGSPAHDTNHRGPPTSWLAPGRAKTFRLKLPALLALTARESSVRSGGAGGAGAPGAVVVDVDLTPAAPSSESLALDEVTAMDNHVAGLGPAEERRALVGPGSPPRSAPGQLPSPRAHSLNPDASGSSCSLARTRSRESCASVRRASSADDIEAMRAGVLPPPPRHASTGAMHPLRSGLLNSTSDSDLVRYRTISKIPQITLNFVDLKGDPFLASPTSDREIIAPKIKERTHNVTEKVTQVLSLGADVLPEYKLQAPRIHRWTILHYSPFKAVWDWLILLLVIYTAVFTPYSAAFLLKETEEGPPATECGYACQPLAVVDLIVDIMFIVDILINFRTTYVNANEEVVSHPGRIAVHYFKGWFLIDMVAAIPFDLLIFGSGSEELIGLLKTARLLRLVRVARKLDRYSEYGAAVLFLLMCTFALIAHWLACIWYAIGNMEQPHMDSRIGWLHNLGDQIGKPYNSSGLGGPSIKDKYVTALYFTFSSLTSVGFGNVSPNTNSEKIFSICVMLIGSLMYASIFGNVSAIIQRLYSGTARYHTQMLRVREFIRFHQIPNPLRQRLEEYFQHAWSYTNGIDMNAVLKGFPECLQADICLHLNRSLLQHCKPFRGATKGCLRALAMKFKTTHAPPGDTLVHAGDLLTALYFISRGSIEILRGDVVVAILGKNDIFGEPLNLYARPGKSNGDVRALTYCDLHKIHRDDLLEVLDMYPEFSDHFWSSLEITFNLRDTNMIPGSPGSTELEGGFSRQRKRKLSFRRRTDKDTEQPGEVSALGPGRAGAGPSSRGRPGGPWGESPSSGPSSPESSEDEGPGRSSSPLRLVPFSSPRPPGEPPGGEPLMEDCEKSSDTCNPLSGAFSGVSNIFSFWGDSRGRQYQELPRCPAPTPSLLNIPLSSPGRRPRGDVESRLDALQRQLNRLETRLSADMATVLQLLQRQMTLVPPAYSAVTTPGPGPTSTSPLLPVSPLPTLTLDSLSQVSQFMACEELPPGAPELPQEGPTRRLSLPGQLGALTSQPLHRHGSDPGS
pIC50: −log10 of the molar value.

Would you please look over these solved cases?
> print(dat)
                                   compound   value
1  CONC(=O)CCCN(C)C(=O)c1ccc2c(c1)c1c(n2C)CC[C@@H](C2CCOCC2)C1  < 4.48
2  CNC(=O)CC[C@@H](CO)N(C)C(=O)c1ccc2c(c1)c1c(n2C)CC[C@@H](C2CCOCC2)C1  < 4.48
3  Cn1c2c(c3cc(C(=O)NCCCC(=O)NC4CC4)ccc31)CC(C1CCOCC1)CC2 (stereo not given)  < 4.51
4  CCN(CCCC(=O)NCCO)C(=O)c1ccc2c(c1)c1c(n2C)CC[C@@H](C2CCOCC2)C1  < 4.48

From here, focus on the item given below.
Query string: Find the measured pIC50: item CN(C(=O)c1ccc2c(c1)c1c(n2C)CC[C@@H](C2CCOCC2)C1)[C@H](CO)CCC(=O)NCCF , target or system Voltage-gated inwardly rectifying potassium channel KCNH2 (Homo sapiens).
Result string: < 4.48

###

- Tested on: Plasma
- experiment: Plasma concentration in rat carrageenan inflammatory pain model at 100 umol/kg, sc
- Format: ADME, cell-free
quantityKind: concentration (µM)
Number in µM, nothing else.

Query string: Quick one: concentration of CNC(=O)CCCN(C)C(=O)c1ccc2c(c1)c1c(n2C)CC[C@@H](C2CCOCC2)C1 ?
Result string: 50.7

###

- experiment: Cmax in Sprague-Dawley rat at 9 umol/kg, po
- Format: ADME, organism-based
- Set-up: dose 9 umol/kg, route oral
- measurementParameters: in vivo
quantityKind: Cmax (µM)
Number in µM, nothing else.

Query string: Quick one: Cmax of CNC(=O)CCCN(C)C(=O)c1ccc2c(c1)c1c(n2C)CC[C@@H](C2CCOCC2)C1 ?
Result string: 6.3

###

- Test system: Plasma
- experiment: Plasma concentration in rat carrageenan inflammatory pain model at 10 umol/kg, sc
- Format: ADME, cell-free
quantityKind: concentration (µM)
Number in µM, nothing else.

Query string: Quick one: concentration of CNC(=O)CCCN(C)C(=O)c1ccc2c(c1)c1c(n2C)CC[C@@H](C2CCOCC2)C1 ?
Result string: 6.9

###

Items are presented alongside their recorded pEC50.
- targetOfAssay: Cannabinoid receptor 1 (Homo sapiens, UniProt P21554)
- Sequence (P21554 whole entry): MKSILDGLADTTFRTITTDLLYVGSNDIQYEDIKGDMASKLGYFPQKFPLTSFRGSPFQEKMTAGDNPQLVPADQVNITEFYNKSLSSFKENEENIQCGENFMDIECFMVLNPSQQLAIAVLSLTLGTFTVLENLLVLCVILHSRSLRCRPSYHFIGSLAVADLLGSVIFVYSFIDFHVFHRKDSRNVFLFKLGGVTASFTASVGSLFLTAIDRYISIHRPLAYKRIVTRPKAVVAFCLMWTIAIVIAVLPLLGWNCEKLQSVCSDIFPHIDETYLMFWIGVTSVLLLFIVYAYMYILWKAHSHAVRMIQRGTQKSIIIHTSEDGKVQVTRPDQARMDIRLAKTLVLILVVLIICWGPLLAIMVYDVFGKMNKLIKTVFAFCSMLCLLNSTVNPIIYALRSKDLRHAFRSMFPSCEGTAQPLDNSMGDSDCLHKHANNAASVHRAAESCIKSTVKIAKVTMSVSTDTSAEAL
- experiment: Agonist activity at human CB1 receptor expressed in HEK293 cells assessed as [35S]GTPgamma binding
Convention used: pEC50 is expressed as -log10 of the molar concentration.

Query string: Quick one: pEC50 of CCN(CC(=O)NC1CC1)C(=O)c1ccc2c(c1)c1c(n2C)CC[C@@H](C2CCOCC2)C1 ?
Result string: 8.72

###

- targetOfAssay: Cannabinoid receptor 1 (Homo sapiens, UniProt P21554)
- experiment: Agonist activity at human CB1 receptor expressed in HEK293 cells assessed as [35S]GTPgamma binding relative to WIN55212-2
- Format: functional, cell-based
quantityKind: Emax (%)
Number in %, nothing else.

Would you please look over these solved cases?
> print(dat)
                                   compound  value
1  CCNC(=O)CC[C@@H](CO)N(C)C(=O)c1ccc2c(c1)c1c(n2C)CC[C@@H](C2CCOCC2)C1    126
2  CCN(CC(=O)NCCF)C(=O)c1ccc2c(c1)c1c(n2C)CC[C@@H](C2CCOCC2)C1    107
3  CONC(=O)CCCN(C)C(=O)c1ccc2c(c1)c1c(n2C)CC[C@@H](C2CCOCC2)C1    104

From here, focus on the item given below.
Query string: Quick one: Emax of CCN(CC(=O)NC1CC1)C(=O)c1ccc2c(c1)c1c(n2C)CCC(C2CCOCC2)C1 (racemic) ?
Result string: 106

###

Items are presented alongside their recorded Ki.
- targetOfAssay: Cannabinoid receptor 1 (Homo sapiens, UniProt P21554)
- experiment: Displacement of [3H]CP55940 from human CB1 receptor expressed in HEK293 cells
- Format: cell-based

Would you please look over these solved cases?
> print(dat)
                               smilesstring    value
1  CCN(CC(=O)NC1CC1)C(=O)c1ccc2c(c1)c1c(n2C)CC[C@@H](C2CCOCC2)C1   4.2 nM
2  CNC(=O)CCCN(C)C(=O)c1ccc2c(c1)c1c(n2C)CC[C@H](C2CCOCC2)C1   576 nM
3  CCN(CC(=O)NC1CC1)C(=O)c1ccc2c(c1)c1c(n2C)CC[C@H](C2CCOCC2)C1  17.3 nM
4  CN(CC(=O)NC1CC1)C(=O)c1ccc2c(c1)c1c(n2C)CC[C@H](C2CCOCC2)C1   177 nM

Query string: Find the measured Ki: item CNC(=O)CCCN(C)C(=O)c1ccc2c(c1)c1c(n2C)CC[C@@H](C2CCOCC2)C1 , target or system Cannabinoid receptor 1 (Homo sapiens, UniProt P21554).
Result string: 29.3 nM

Query string: Next compound up: CN(CC(=O)NC1CC1)C(=O)c1ccc2c(c1)c1c(n2C)CC[C@@H](C2CCOCC2)C1
Result string: 24.5 nM

###

- experiment: Plasma protein binding in Sprague-Dawley rat
- Assay type: ADME, cell-free
- measurementParameters: read-out: PPB (converted)
quantityKind: fraction unbound
Give a plain numeric answer without units written out.

Query string: Quick one: fraction unbound of CNC(=O)CCCN(C)C(=O)c1ccc2c(c1)c1c(n2C)CC[C@@H](C2CCOCC2)C1 ?
Result string: 0.021

###

- targetOfAssay: Cannabinoid receptor 1 (Homo sapiens)
- experiment: Agonist activity at human CB1 receptor expressed in HEK293 cells assessed as [35S]GTPgamma binding relative to WIN55212-2
- Type: functional, cell-based
quantityKind: Emax (%)
Number in %, nothing else.

Would you please look over these solved cases?
> print(dat)
                                   molecule                          targetofassay  value
1  CN(CC(=O)NC1CC1)C(=O)c1ccc2c(c1)c1c(n2C)CC[C@@H](C2CCOCC2)C1  Cannabinoid receptor 1 (Homo sapiens)    116
2  CNC(=O)CC[C@@H](CO)N(C)C(=O)c1ccc2c(c1)c1c(n2C)CC[C@@H](C2CCOCC2)C1  Cannabinoid receptor 1 (Homo sapiens)    124
3  CCN(CC(=O)NC1CC1)C(=O)c1ccc2c(c1)c1c(n2C)CC[C@H](C2CCOCC2)C1  Cannabinoid receptor 1 (Homo sapiens)    106
4  CCN(CCCC(=O)NC1CC1)C(=O)c1ccc2c(c1)c1c(n2C)CCC(C2CCOCC2)C1 (centres undefined)  Cannabinoid receptor 1 (Homo sapiens)    114
5  CNC(=O)CCCN(C)C(=O)c1ccc2c(c1)c1c(n2C)CC[C@@H](C2CCOCC2)C1  Cannabinoid receptor 1 (Homo sapiens)    116
6  CN(CC(=O)NC1CC1)C(=O)c1ccc2c(c1)c1c(n2C)CCC(C2CCOCC2)C1 (racemic)  Cannabinoid receptor 1 (Homo sapiens)    121
7  CCN(CCCC(=O)NCCO)C(=O)c1ccc2c(c1)c1c(n2C)CC[C@@H](C2CCOCC2)C1  Cannabinoid receptor 1 (Homo sapiens)    113
8  CN(C(=O)c1ccc2c(c1)c1c(n2C)CC[C@@H](C2CCOCC2)C1)[C@H](CO)CCC(=O)NCCF  Cannabinoid receptor 1 (Homo sapiens)    118

Query string: Quick one: Emax of CN(CCCC(=O)NCCF)C(=O)c1ccc2c(c1)c1c(n2C)CC[C@@H](C2CCOCC2)C1 ?
Result string: 108

Query string: Next molecule up: CCN(CC(=O)NC1CC1)C(=O)c1ccc2c(c1)c1c(n2C)CC[C@@H](C2CCOCC2)C1
Result string: 106

Query string: Next molecule up: CCCCCOc1ccc(C(=O)c2cccc3ccccc23)c2ccccc12
Result string: 112

Query string: Next molecule up: CN(CCCC(=O)NCCO)C(=O)c1ccc2c(c1)c1c(n2C)CC[C@@H](C2CCOCC2)C1
Result string: 120

Query string: Next molecule up: CNC(=O)CCCN(C)C(=O)c1ccc2c(c1)c1c(n2C)CCC(C2CCOCC2)C1 (racemic)
Result string: 121

Query string: Next molecule up: CCS(=O)(=O)n1c2c(c3cc(C(=O)N4CCC(C)CC4)ccc31)CN(C1CCOCC1)CC2
Result string: 120
